Just for reference, patent US10947202B2 is where these values come from.

Assay: Solubility experiment
Type: physicochemical
Details: buffer pH 4.5, room temperature
Could you please report measured Solubility (mg/mL) pH4.5 for the items listed next?
Answers are plain numbers, in mg/mL.

Would you please look over these solved cases?
COMPOUND: Cc1cc(N2CCN(Cc3cc(F)c(C(=O)NS(=O)(=O)C4CC4)cc3Cl)CC2)ccc1Cl [crystal form D]
MEASURE UNIT: mg/mL
Solubility (mg/mL) pH4.5: 0.002

COMPOUND: Cc1cc(N2CCN(Cc3cc(F)c(C(=O)NS(=O)(=O)C4CC4)cc3Cl)CC2)ccc1Cl [crystal form A]
MEASURE UNIT: mg/mL
Solubility (mg/mL) pH4.5: 0.001

COMPOUND: Cc1cc(N2CCN(Cc3cc(F)c(C(=O)NS(=O)(=O)C4CC4)cc3Cl)CC2)ccc1Cl [crystal form F]
MEASURE UNIT: mg/mL
Solubility (mg/mL) pH4.5: 0.002

Turning now to a further compound:
Inquiry: Recorded Solubility (mg/mL) pH4.5 for Cc1cc(N2CCN(Cc3cc(F)c(C(=O)NS(=O)(=O)C4CC4)cc3Cl)CC2)ccc1Cl [crystal form E-1] , please?
Reply text: 0.002
